Tested on: Pseudomonas aeruginosa PST1
Assay: MIC, serial dilution on nutrient agar
Assay type: cell-based
Settings: PST1, 18 h
# reported MIC; entries follow

C[C@H]1O[C@H](O[C@@H]2[C@@H](O)[C@H](O[C@H]3O[C@H](CN)CC[C@H]3N)[C@@H](N)C[C@H]2NC(=O)[C@@H](O)CCN)[C@H](O)[C@@H](N)[C@@H]1O | 50 µg/mL
C[C@@H]1C[C@H](N)[C@@H](O)[C@@H](O[C@@H]2[C@@H](O)[C@H](O[C@H]3O[C@H](CN)CC[C@H]3N)[C@@H](N)C[C@H]2N)O1 | > 100 µg/mL
C[C@H]1O[C@H](O[C@@H]2[C@@H](O)[C@H](O[C@H]3O[C@H](CN)CC[C@H]3N)[C@@H](N)C[C@H]2N)[C@H](O)[C@@H](N)[C@@H]1O | > 100 µg/mL

I am curious: what MIC value has been reported for NC[C@@H]1CC[C@@H](N)[C@@H](O[C@H]2[C@H](O)[C@@H](O[C@H]3O[C@H](CO)[C@@H](O)[C@H](N)[C@H]3O)[C@H](N)C[C@@H]2N)O1 [DKB, 3',4'-dideoxykanamycin B, reference compound] ? > 100 µg/mL
